Taken from ChEMBL document CHEMBL1145136.

Molecular target: mouse constitutive androstane receptor (mCAR, NR1I3) (Mus musculus, UniProt O35627)
Sequence (O35627 whole entry): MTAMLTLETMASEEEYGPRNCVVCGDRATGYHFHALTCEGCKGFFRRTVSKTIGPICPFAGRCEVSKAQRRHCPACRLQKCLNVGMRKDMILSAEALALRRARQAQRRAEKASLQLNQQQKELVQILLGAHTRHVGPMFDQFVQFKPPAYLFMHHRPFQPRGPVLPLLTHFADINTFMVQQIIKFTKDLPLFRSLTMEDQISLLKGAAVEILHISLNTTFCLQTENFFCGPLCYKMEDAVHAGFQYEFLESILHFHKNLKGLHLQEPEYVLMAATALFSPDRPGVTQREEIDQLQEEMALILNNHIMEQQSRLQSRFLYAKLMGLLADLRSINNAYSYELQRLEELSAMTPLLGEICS
Test: Inhibition of mouse constitutive androstane receptor (mCAR) activity at 10 uM was determined as percent remaining activity
Conditions: read-out: Remaining activity
Rule: activity at 10 µM under 80% gives not fulfilled, otherwise fulfilled.

Take a look at these entries with their results.
- Compound: "C[C@@H]1C[C@H]2[C@@H]3CCC4=CC(=O)C=C[C@]4(C)[C@@]3(F)[C@@H](O)C[C@]2(C)[C@@]1(O)C(=O)CO"
  Classification: "not fulfilled"
- Compound: "C[C@]12CCC(=O)C(O)=C1CC[C@@H]1[C@@H]2CC[C@]2(C)C(=O)CC[C@@H]12"
  Classification: "not fulfilled"
- Compound: "C[C@]12CCC(=O)C=C1CC[C@@H]1[C@@H]2[C@@H](O)C[C@]2(C)C(=O)CC[C@@H]12"
  Classification: "fulfilled"
- Compound: "C[C@]12CC[C@H]3[C@@H](CCC4=CC(=O)CC[C@@]43C)[C@@H]1CC[C@@H]2C(=O)CO"
  Classification: "not fulfilled"
- Compound: "CC12CC[C@H]3[C@@H](CC[C@H]4CC(=O)CCC43C)[C@@H]1CCC2=O (stereo partly drawn)"
  Classification: "not fulfilled"

# ---- query compound ----
Request: Identify whether the reported activity at 10 µM of the following compound is 80% or greater: CC12C=CCC1C1CC[C@H]3C[C@H](O)CCC3(C)C1CC2 (stereo partly drawn)
Result: not fulfilled
